Recorded values, source PubChem BioAssay AID2060898.

Test system: 616215-338-R-J1-PDC complex spheroid viability;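 also: spheroids exposed to agents for seven days before viability readout; 100% = DMSO vehicle control viability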
test_summary: Anticancer human tumor 616215-338-R-J1-PDC patient-derived colon adenocarcinoma cell line growth inhibition [RAS]
assay_conditions: second compound 0.316 µM; first compound 0.00949 µM; hits give low values
As shown below, each of these compounds has a reported viability, T/C value.

compound	viability, T/C
CCc1c2c(nc3ccc(O)cc13)-c1cc3c(c(=O)n1C2)COC(=O)[C@]3(O)CC + C#Cc1c(F)ccc2cc(O)cc(-c3ncc4c(N5CC6CCC(C5)N6)nc(OCC56CCCN5CC(F)C6)nc4c3F)c12	63%
CC1(C)CCC(Nc2ncc(C(F)(F)F)c(-c3c[nH]c4c(P(C)(C)=O)c(C#N)ccc34)n2)CN1 (centres undefined) + C=CC(=O)N1CCN(c2nc(OCC3CCCN3C)nc3c(F)c(-c4nc(N)cc(C)c4C(F)(F)F)c(Cl)cc23)C(C)C1	61.9%
CCc1c2c(nc3ccc(O)cc13)-c1cc3c(c(=O)n1C2)COC(=O)[C@]3(O)CC + C=CC(=O)N1CCN(c2nc(OCC3CCCN3C)nc3c(F)c(-c4nc(N)cc(C)c4C(F)(F)F)c(Cl)cc23)C(C)C1	57.7%

Entry under review: CC1(C)CCC(Nc2ncc(C(F)(F)F)c(-c3c[nH]c4c(P(C)(C)=O)c(C#N)ccc34)n2)CN1 (centres undefined) + C#Cc1c(F)ccc2cc(O)cc(-c3ncc4c(N5CC6CCC(C5)N6)nc(OCC56CCCN5CC(F)C6)nc4c3F)c12 . Reported viability, T/C?
66.5%
